Molecular target: Class 1 phosphodiesterase PDEB1 (Trypanosoma brucei)
Sequence (whole entry): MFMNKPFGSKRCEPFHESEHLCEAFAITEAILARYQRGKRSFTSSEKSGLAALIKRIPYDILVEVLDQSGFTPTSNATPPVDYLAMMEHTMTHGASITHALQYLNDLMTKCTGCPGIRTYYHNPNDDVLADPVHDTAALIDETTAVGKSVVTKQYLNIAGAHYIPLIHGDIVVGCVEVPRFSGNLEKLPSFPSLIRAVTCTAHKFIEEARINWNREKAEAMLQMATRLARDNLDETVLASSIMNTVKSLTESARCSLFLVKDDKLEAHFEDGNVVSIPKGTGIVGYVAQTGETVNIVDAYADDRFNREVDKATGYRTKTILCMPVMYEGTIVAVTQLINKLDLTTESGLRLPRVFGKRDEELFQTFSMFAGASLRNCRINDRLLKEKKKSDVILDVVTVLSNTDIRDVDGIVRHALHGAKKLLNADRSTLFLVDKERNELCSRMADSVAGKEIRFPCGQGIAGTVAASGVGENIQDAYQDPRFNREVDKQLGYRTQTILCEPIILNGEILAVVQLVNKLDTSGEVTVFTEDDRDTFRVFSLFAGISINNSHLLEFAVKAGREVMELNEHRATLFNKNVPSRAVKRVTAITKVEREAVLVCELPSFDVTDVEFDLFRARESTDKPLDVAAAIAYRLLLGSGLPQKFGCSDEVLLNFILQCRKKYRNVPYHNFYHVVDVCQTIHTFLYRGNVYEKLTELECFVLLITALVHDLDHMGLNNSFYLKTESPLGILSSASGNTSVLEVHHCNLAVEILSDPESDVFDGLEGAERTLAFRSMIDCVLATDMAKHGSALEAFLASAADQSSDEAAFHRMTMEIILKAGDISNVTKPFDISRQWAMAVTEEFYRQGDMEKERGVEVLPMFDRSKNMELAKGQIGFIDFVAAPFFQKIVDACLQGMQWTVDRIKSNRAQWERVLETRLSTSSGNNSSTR
Experiment: Inhibition of Trypanosoma brucei recombinant PDEB1 at 10 uM pre-incubated for 5 mins prior to substrate addition
Could you label it condition met if measured inhibition is 70% or higher, and condition not met otherwise?

Decide: is the reported value of inhibition for "COc1ccc([C@]2(C#N)CC[C@@H](C(=O)O)CC2)cc1OCc1ccccn1" equal to or greater than 70%?
condition not met

# check: inhibition of "COc1ccc([C@]2(C#N)CC[C@@H](C(=O)O)CC2)cc1OCCCCCOc1ccccc1" is greater than or equal to 70%
condition not met

Does the reported inhibition for "COc1ccc([C@]2(C#N)CC[C@@H](C(=O)O)CC2)cc1OCCCCOc1ccccc1" fall at or above the 70% mark?
condition met

Could you please find out whether "COc1ccc([C@]2(C#N)CC[C@@H](C(=O)O)CC2)cc1OCc1ccccc1" has inhibition that meets 70% or exceeds it?
condition met

Confirm if inhibition reported for the compound "CCOC(=O)CN1CCC(C#N)(c2ccc(OC)c(OC3CCCC3)c2)CC1" is 70% or above.
condition not met

Determine whether this compound has inhibition no lower than 70%: "COc1ccc([C@]2(C#N)CC[C@@H](C(=O)O)CC2)cc1OCCCCOc1ccc(C)cc1"
condition met

Determine whether this compound has inhibition no lower than 70%: "COc1ccc([C@]2(C#N)CC[C@H](C(=O)OC)CC2)cc1OC1CCCC1"
condition not met

Entry "COc1ccc([C@]2(C#N)CC[C@@H](C(=O)OC)CC2)cc1OCc1ccccc1" : is its inhibition no less than 70%?
condition not met

Form field: inhibition at least 70%? Entry: "COc1ccc(OCCCCOc2cc([C@]3(C#N)CC[C@@H](C(=O)O)CC3)ccc2OC)cc1"
condition met

---

Would you kindly list inhibition for each of these compounds?
Target: Class 1 phosphodiesterase PDEB1 (Trypanosoma brucei) (UniProt Q8WQX9)
Test: Inhibition of Trypanosoma brucei recombinant PDEB1 at 10 uM pre-incubated for 5 mins prior to substrate addition
Write it as a number; the unit % goes unstated.

// recorded inhibition for "COc1ccc([C@]2(C#N)CC[C@@H](C(=O)O)CC2)cc1OCCCOc1ccccc1" : 66

"COc1ccc([C@]2(C#N)CC[C@@H](C(=O)OC)CC2)cc1OC1CCCC1" has a reported inhibition of 31

Noted for "COc1ccc([C@]2(C#N)CC[C@H](C(=O)OC)CC2)cc1OCc1ccccc1" : its inhibition reads 28

// field: inhibition; key: "COc1ccc([C@]2(C#N)CC[C@H](C(=O)O)CC2)cc1OCc1ccccc1" ; value = 20

// inhibition lookup, compound = "COc1ccc([C@]2(C#N)CC[C@@H](C(=O)O)CC2)cc1OCc1ccncc1" , result: 11

inhibition in this record for "COc1ccc(C2(C#N)CCN(CC(=O)O)CC2)cc1OC1CCCC1" : 11

Short answer for "COc1ccc([C@]2(C#N)CC[C@@H](C(=O)O)CC2)cc1OCCCCOc1ccc(C#N)cc1" : inhibition was 87

Measured inhibition of "COc1ccc([C@]2(C#N)CC[C@H](C(=O)O)CC2)cc1OC1CCCC1" : 9.3

So for "COc1ccc([C@]2(C#N)CC[C@@H](C(=O)O)CC2)cc1OCCCCOc1ccc(F)cc1" , the logged inhibition turned out to be 79

The compound listed as "COc1ccc(C2(C#N)CCNCC2)cc1OC1CCCC1" shows inhibition equal to 19

---

Target: UniProtKB Q8WQX9
Assay: Inhibition of Trypanosoma brucei recombinant PDEB1 pre-incubated for 5 mins prior to substrate addition
Record form. Attribute: IC50. Fill in for each entry.
Numbers only here, please. The scale is µM.

So for "COc1ccc([C@]2(C#N)CC[C@@H](C(=O)O)CC2)cc1OCCCCOc1ccc(C#N)cc1" , the logged IC50 turned out to be 3.6

# IC50 (compound: "COc1ccc([C@]2(C#N)CC[C@@H](C(=O)O)CC2)cc1OCc1ccccc1" ) is 12

The recorded IC50 for "COc1ccc([C@]2(C#N)CC[C@@H](C(=O)O)CC2)cc1OCCCOc1ccccc1" is 11

According to the records, this compound "COc1ccc(OCCCCOc2cc([C@]3(C#N)CC[C@@H](C(=O)O)CC3)ccc2OC)cc1" displays IC50 of 3.5

Data point: "COc1ccc([C@]2(C#N)CC[C@@H](C(=O)O)CC2)cc1OCCCCOc1ccc(F)cc1" ; IC50 = 9.2

Entry "COc1ccc([C@]2(C#N)CC[C@@H](C(=O)O)CC2)cc1OCCCCOc1ccc(C)cc1" — recorded IC50 = 4.9

// IC50 lookup, compound = "COc1ccc([C@]2(C#N)CC[C@@H](C(=O)O)CC2)cc1OC1CCCC1" , result: 16

// "COc1ccc([C@]2(C#N)CC[C@@H](C(=O)O)CC2)cc1OCCCCCOc1ccccc1" : IC50 value = 9.8

Reported IC50 of "COc1ccc([C@]2(C#N)CC[C@@H](C(=O)O)CC2)cc1OCCCCOc1ccc(-c2nn[nH]n2)cc1" : 7.9
